Listing of recorded TGI by entry.
- System: HCT-116 colon
- protocol details: NCI tumour cell line growth inhibition, 48 h
assay metric: TGI (µM)

molecule: COc1ccc2c(c1)CCC1C2CC[C@@]2(C)C1CC[C@@]2(O)CNC(=O)/C=C/c1ccc(O)c(OC)c1 (stereo partly specified)
tested on: HCT-116 colon
assay metric: TGI
relational operator: >
observed: 100
//
molecule: CC(C)(C)N=C1CC(C)(C)c2ccccc2C(=Nc2ccccc2)S1
tested on: HCT-116 colon
assay metric: TGI
relational operator: >
observed: 100
//
molecule: Cc1c2c3cc(O)ccc3nc-2n(C)c2ccccc12
tested on: HCT-116 colon
assay metric: TGI
relational operator: =
observed: 10.1
//
molecule: N#CC1=C(N)C(C#N)(C#N)C(c2ccc(F)cc2)C=C1C1CC1 (stereo unspecified)
tested on: HCT-116 colon
assay metric: TGI
relational operator: =
observed: 15.8
//
molecule: C=C(C=O)C1CC(=O)C(C(=O)OC)[C@@H]2O[C@@](C)(CC2=O)C[C@@H]2OC(=O)[C@]3(O[C@@H]23)[C@@H](C(=O)OC)C1 (stereo partly specified)
tested on: HCT-116 colon
assay metric: TGI
relational operator: =
observed: 33.6
//
molecule: C=C1CCC2C3(C)COC(c4ccc(NC(C)=O)cc4)OC3CCC2(C)C1C/C=C1/C(=O)OCC1O (stereo unspecified)
tested on: HCT-116 colon
assay metric: TGI
relational operator: >
observed: 100
//
molecule: Nc1nc(Cl)cc(N=Nc2ccccc2)n1
tested on: HCT-116 colon
assay metric: TGI
relational operator: =
observed: 32.2
//
molecule: CN=C(Nn1cnnc1)OC
tested on: HCT-116 colon
assay metric: TGI
relational operator: >
observed: 100
//
molecule: COc1ccc(/C=C/c2cc(O)cc(OC)c2)cc1
tested on: HCT-116 colon
assay metric: TGI
relational operator: >
observed: 100
//
molecule: COC(=O)[C@H](C)N1C(=O)N[C@@H](C(C)C)C1=O
tested on: HCT-116 colon
assay metric: TGI
relational operator: >
observed: 100
//
molecule: O=[N+]([O-])c1cccc([N+](=O)[O-])c1S(=O)(=O)c1ccccc1
tested on: HCT-116 colon
assay metric: TGI
relational operator: =
observed: 4.04

---

Listing of recorded TGI by entry.
- Tested on: HCC-2998 colon
- protocol details: NCI tumour cell line growth inhibition, 48 h

compound: N#CCCC1C(C#N)C2CC1C1C3C=CC(C3)C21 (configuration not stated)
TGI: > 100 µM
//
compound: O=C1c2ccccc2C(=O)c2c(NCCCNCCO)ccc(NCCCNCCO)c21
TGI: 16.7 µM
//
compound: CC1(C)COC(c2cccc(C3=NC(C)(C)CO3)c2Br)=N1
TGI: > 100 µM
//
compound: N/C(=N\NS(=O)(=O)c1ccccc1)Oc1ccc(Cl)cc1
TGI: > 100 µM
//
compound: O=C(/C=C/c1ccc(-c2ccccc2[N+](=O)[O-])o1)NCc1ccc(C(=O)NCCc2ccccc2)cc1
TGI: > 100 µM
//
compound: CCc1nnc(-n2c(C)nc3cc(Cl)ccc3c2=O)s1
TGI: > 100 µM
//
compound: CN(C(=O)C1(C(=O)C=[N+]=[N-])CC1)c1ccccc1
TGI: > 100 µM
//
compound: CCC1C(C)c2c([nH]c3ccccc23)C2C(=O)N(c3ccccc3)C(=O)C21 (configuration not stated)
TGI: 28.9 µM
//
compound: OCC1OC(n2cnc3cccnc32)CC1O (configuration not stated)
TGI: > 100 µM
//
compound: COc1ccc(C2(c3ccc(OC)cc3)OC(=O)c3cccc4cccc2c34)cc1
TGI: 37.5 µM
//
compound: CN(CCc1ccc(Cl)c(Cl)c1)[C@H]1CCCC[C@H]1N1CCCC1
TGI: > 100 µM
//
compound: C/C1=C\[C@H](C)C[C@H](C)OC(=O)C[C@H](c2ccc(O)cc2)NC(=O)[C@@H](Cc2c(Br)[nH]c3ccccc23)N(C)C(=O)[C@H](C)NC(=O)[C@@H](C)C1
TGI: 2.27 µM
//
compound: O=C1NC(=S)N/C1=C/c1ccccc1O
TGI: > 100 µM
//
compound: COc1cc2cc(C(=O)N3CC(CCl)c4c3cc(N)c3ccccc43)[nH]c2cc1OCCN(C)C (configuration not stated)
TGI: 0.535 µM
//
compound: CC1=NNC(=NCCN(C)C)C/C1=C/c1ccccc1Cl
TGI: > 100 µM
//
compound: Cc1cc2ccccc2n1CC(=O)NCC(C)C
TGI: > 100 µM
//
compound: CN(C)CCOC(=O)COc1ccc(Cl)cc1
TGI: > 100 µM
//
compound: CCCCCCCCCCCC(=O)OCC1OC(n2cc(F)c(=O)[nH]c2=O)C(NC(=O)OCc2ccccc2)C(O)C1O (configuration not stated)
TGI: 32.9 µM
//
compound: NCCCCCS(=O)(=O)O
TGI: > 100 µM
//
compound: CC(=O)N(CN1C(=O)CCC1C(=O)O)c1ccccc1 (configuration not stated)
TGI: > 100 µM
//
compound: CC1=C(C(=O)OCCc2ccc([N+](=O)[O-])cc2)C(c2ccccc2[N+](=O)[O-])C(C(=O)OC(C)C)=C(C)N1 (configuration not stated)
TGI: > 100 µM
//
compound: C/C(=C\c1ccc(Cl)cc1)C(C)(C)C(=O)O
TGI: > 100 µM
